ASSAYED SYSTEM: kinase domain of human CHK-1 (KH289) (Homo sapiens, UniProt O14757)
Construct: kinase domain of human CHK-1 (KH289), amino acid residues 1-289; Hi-S insect cells for protein production, Sf9/Sf21 for virus amplification
Sequence (O14757 1-289): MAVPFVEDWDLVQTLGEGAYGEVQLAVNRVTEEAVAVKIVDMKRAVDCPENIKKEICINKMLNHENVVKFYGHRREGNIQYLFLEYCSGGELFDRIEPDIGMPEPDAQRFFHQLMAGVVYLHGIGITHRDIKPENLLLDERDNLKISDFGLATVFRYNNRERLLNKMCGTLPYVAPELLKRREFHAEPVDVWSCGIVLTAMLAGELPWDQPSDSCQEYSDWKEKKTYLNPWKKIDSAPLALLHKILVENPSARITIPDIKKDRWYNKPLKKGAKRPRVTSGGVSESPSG
TEST SUMMARY: CHK-1 coupled spectrophotometric enzyme assay (Syntide-2, PK/LDH, NADH oxidation)
STUDY CONDITIONS: 10 nM KH289, 0.15 mM ATP, 0.125 mM Syntide-2, pH 7.5
pKi: −log10 of the molar value.
QUANTITY KIND: pKi

# COMPOUND, pKi
measured = [
    ("Cn1cnc(-c2[nH]c3cc(NC(=O)[C@H](N)CCc4ccccc4)cc4c3c2C=NNC4=O)c1 [Example 266]", 9.54),
    ("N[C@H](CCc1ccccc1)C(=O)Nc1cc2c3c(c(-c4ccccn4)[nH]c3c1)C=NNC2=O [Example 277]", 9.26),
    ("N[C@H](CCc1ccccc1)C(=O)Nc1cc2c3c(c(Br)[nH]c3c1)C=NNC2=O [Example 259]", 9.00),
    ("Cc1ccc(-c2[nH]c3cc(NC(=O)[C@H](N)C4Cc5ccccc5C4)cc4c3c2C=NNC4=O)cn1 [Example 260]", 9.38),
]

(P) N[C@H](CCc1ccccc1)C(=O)Nc1cc2c3c(c[nH]c3c1)C=NNC2=O [Example 276]
(Q) Cn1cc(-c2[nH]c3cc(NC(=O)CNCc4ccccc4)cc4c3c2C=NNC4=O)cn1 [Example 270]
Enquiry: Please let me know which one, P or Q , has a lower measured pKi value. Refer to your chosen entry by its label in the reply.
Return: P
(P: 8.35, Q: 9.10)

====

ASSAYED SYSTEM: kinase domain of human CHK-1 (KH289) (Homo sapiens)
Construct: kinase domain of human CHK-1 (KH289), amino acid residues 1-289; Hi-S insect cells for protein production, Sf9/Sf21 for virus amplification
TEST SUMMARY: CHK-1 coupled spectrophotometric enzyme assay (Syntide-2, PK/LDH, NADH oxidation)
STUDY CONDITIONS: 10 nM KH289, 0.15 mM ATP, 0.125 mM Syntide-2, pH 7.5
QUANTITY KIND: Ki (nM)

Consider the reported Ki for these molecules:
# MOLECULE, Ki, nM
measured = [
    ("Cn1cnc(-c2[nH]c3cc(NC(=O)[C@H](N)C4CCCCC4)cc4c3c2C=NNC4=O)c1", 1.2),
    ("N[C@@H](C(=O)Nc1cc2c3c(c(Cl)[nH]c3c1)C=NNC2=O)C1Cc2ccccc2C1", 0.73),
    ("Cc1cc(-c2[nH]c3cc(NC(=O)[C@H](N)CCc4ccccc4)cc4c3c2C=NNC4=O)on1", 0.01),
    ("N[C@@H](C(=O)Nc1cc2c3c(c[nH]c3c1)C=NNC2=O)C1Cc2ccccc2C1", 0.27),
    ("Cc1cc(-c2[nH]c3cc(NC(=O)[C@H](N)C4Cc5ccccc5C4)cc4c3c2C=NNC4=O)on1", 0.15),
    ("Cn1cc(-c2[nH]c3cc(NC(=O)[C@H](N)C4Cc5ccccc5C4)cc4c3c2C=NNC4=O)cn1", 0.14),
    ("Cn1cc(-c2[nH]c3cc(NC(=O)[C@H](N)c4ccc(F)cc4)cc4c3c2C=NNC4=O)cn1", 0.46),
    ("Cn1cc(-c2[nH]c3cc(NC(=O)[C@]4(N)C[C@H]4c4ccccc4)cc4c3c2C=NNC4=O)cn1", 0.3),
    ("O=C1NN=Cc2c[nH]c3cc(OCC4CC4c4ccccc4)cc1c23 (stereo not shown)", 7),
    ("Cc1ccc(-c2[nH]c3cc(NC(=O)[C@H](N)CCc4ccccc4)cc4c3c2C=NNC4=O)cn1", 0.78),
]

(A) N[C@H](CCc1ccccc1)C(=O)Nc1cc2c3c(c(Cl)[nH]c3c1)C=NNC2=O
(B) N[C@@H](C(=O)Nc1cc2c3c(c(-c4ccccn4)[nH]c3c1)C=NNC2=O)C1Cc2ccccc2C1
Enquiry: Please let me know which one, A or B , has a lower measured Ki value. Refer to your chosen entry by its label in the reply.
Return: B

(a) CN(CC(=O)Nc1cc2c3c(c(-c4cnn(C)c4)[nH]c3c1)C=NNC2=O)Cc1ccccc1
(b) Cn1cc(-c2[nH]c3cc(NC(=O)[C@H](N)COc4ccccc4)cc4c3c2C=NNC4=O)cn1
(c) Cn1cc(-c2[nH]c3cc(NC(=O)[C@H](N)CCc4ccccc4)cc4c3c2C=NNC4=O)cn1
Enquiry: Arrange by Ki, high to low. Returns: the labels listed in the requested order.
Return: a, c, b
(a: 2 nM, c: 0.78 nM, b: 0.48 nM)
